System: OVCAR-3 ovarian
Assay: NCI tumour cell line growth inhibition, 48 h
reportedProperty: TGI

Illustrative cases are given below, each with its answer.
O=C(NCCN(CCNC(=O)c1cccc(=O)n1O)CCN(CCNC(=O)c1cccc(=O)n1O)CCNC(=O)c1cccc(=O)n1O)c1cccc(=O)n1O; > 100 µM
Cc1cc(-c2ncc(CC(=O)Nc3ccc(-c4cnccn4)cn3)cc2C)ccn1; > 100 µM
CC(C)C[C@H](NC(=O)[C@H](Cc1cccc2ccccc12)NC(=O)N1CCOCC1)B(O)O; 0.00171 µM
COc1cc(/C(C#N)=C/c2ccc3c(c2OC)OCO3)cc2c1OCO2; 0.0774 µM
Cc1ccc2c(=O)cc(-c3csc4ccccc34)[nH]c2n1; < 0.01 µM
COC(=O)Cc1ccc2c(c1)Sc1ccc(CC(=O)OC)cc1N2C; > 100 µM
Cc1cc2c(c(C#N)c1C)NC(=O)CCC2=O; > 100 µM
COc1ccc(N=C2CSc3nnc(-c4cc(F)c(Cl)cc4Cl)n3N2)cc1; 2.02 µM
Cc1ccc(C)n2c1nc1ccc3ccccc3c12; > 100 µM

Now consider a different compound.
What TGI value was documented for this compound, `O=C(Nc1ccccc1F)c1c(O)nc2sccn2c1=O` ? > 10 µM

----------
Tested on: HOP-62 NSCLC
Experiment: NCI tumour cell line growth inhibition, 48 h
What TGI was measured for each of the following?

Illustrative cases are given below, each with its answer.
O=C(Nc1ccccc1)O/N=C(/CBr)c1ccccc1; 68.7 µM
COc1cccc(N2C(=O)C3c4[nH]c5ccccc5c4C4c5ccccc5CCC4C3C2=O)c1 (centres undefined); 6.81 µM
CC(=O)Oc1ccc(/C=C/C(=O)O[C@@H](C)[C@H](C)OC(=O)/C=C/c2ccc(OC(C)=O)c(OC(C)=O)c2)cc1OC(C)=O; 56.3 µM

# return TGI for each item in the list
1. C=CC(=O)N1C/C(=C\c2ccc(N(C)C)cc2)C(=O)/C(=C/c2ccc(N(C)C)cc2)C1
2. CC(C)Oc1c(-c2c(OC(C)C)c(=O)c2=O)c(=O)c1=O
3. Cc1c(C)c(C)c(-n2[nH]c(=O)n(C)c2=O)c(C)c1C

> 100 µM
> 85.2 µM
> 100 µM

----------
What TGI was measured for each of the following?
Tested on: M14 melanoma
Test: NCI tumour cell line growth inhibition, 48 h

Illustrative cases are given below, each with its answer.
CCN1CC(C)Cn2c(=O)[nH]c3cc(Br)cc1c32 (stereo not drawn); > 100 µM
CC1=C(C)C(=O)c2c(cc3ccc4ccccc4n23)C1=O; > 100 µM

Now consider a different molecule.
What TGI value was documented for this molecule, `CN(C)c1cccc2c(S(=O)(=O)N[C@H]3CC[C@H]4[C@@H]5CCc6cc(O)ccc6[C@H]5CC[C@]34C)cccc12` ? 18.3 µM

----------
What TGI was measured for each of the following?
Tested on: SW-620 colon
Experiment: NCI tumour cell line growth inhibition, 48 h

CC1OC(OCC2OC(Oc3c(-c4ccc(O)cc4)oc4cc(O)cc(O)c4c3=O)C(OC3OCC(O)(CO)C3O)C(O)C2O)C(O)C(O)C1O (stereo not given); > 100 µM
O=C(Nc1ccccc1)O/N=C(/CBr)c1ccccc1; > 100 µM
CSc1nc(NC2CCCC2)c2cc[nH]c2n1; > 100 µM
COc1cc2c3cc1Oc1c(O)c(OC)cc4c1[C@H](Cc1ccc(cc1)Oc1cc(ccc1O)C[C@H]3N(C)CC2)N(C)CC4; 57.3 µM

Now consider a different compound.
What TGI value was documented for this compound, COc1cccc(C2CC(C)(N3CCCC3)Oc3cc4c(cc32)OCO4)c1O (stereo not given) ? > 100 µM

----------
What TGI was measured for each of the following?
System: HS 578T breast
Experiment: NCI tumour cell line growth inhibition, 48 h
Where a SMILES comes first, the peptide text is derived from it. [ ]: non-standard residue; d: D form. The star is where a group is joined. Phe(4-NO2) = N[CH](Cc1ccc([N+](=O)[O-])cc1)C(=O)O; Boc = CC(C)(C)OC(=O)*; OBn = c1ccc(CO*)cc1

Illustrative cases are given below, each with its answer.
Cc1c(C)c(C)c(-n2[nH]c(=O)n(C)c2=O)c(C)c1C; > 100 µM
N#Cc1cn(C2OC(CO)C(O)C2O)c2ncnc(N)c12 (centres undefined); 1.33 µM
CCNC(=O)Nc1cccc(C)n1; > 100 µM
Oc1ccc(Cl)cc1C1=N/C(=N\CN2CCN(C/N=C3/N=C(c4cc(Cl)ccc4O)CC(c4ccccc4)N3)CC2)NC(c2ccccc2)C1 (centres undefined); > 100 µM
COc1cc(C2C=C(c3cccc(NC(C)=O)c3)Nc3ncnn32)cc(OC)c1OC (centres undefined); 0.413 µM
N=C1C(c2nc(-c3ccc(Br)cc3)cs2)=C(O)CN1Cc1cccnc1; 2.86 µM

# return TGI for each item in the list
1. N#CCC1COc2ccccc2O1 (centres undefined)
2. Cc1ccc(C)n2c1nc1ccc3ccccc3c12
3. COC(=O)CCC(NC(=O)OC(C)(C)C)C(=O)NC(Cc1ccc([N+](=O)[O-])cc1)C(=O)NCC(=O)OCc1ccccc1 (centres undefined) (Boc-Glu(OMe)-[Phe(4-NO2)]-Gly-OBn; configuration not given here)

1. > 10 µM
2. > 100 µM
3. > 64.4 µM

----------
Tested on: SK-MEL-2 melanoma
Test: NCI tumour cell line growth inhibition, 48 h
reportedProperty: TGI

Illustrative cases are given below, each with its answer.
Cc1c(-c2c(C)c3ccccc3n2S(=O)(=O)c2ccccc2)n(S(=O)(=O)c2ccccc2)c2ccccc12; > 100 µM
CCOC(=O)c1c2c(n3ccc(NC(=O)CCN4CCCC4)cc13)C(=O)c1ncccc1C2=O; 39.3 µM
Cc1cc2c(cc1Cl)Sc1nnc(Nc3ccccc3)n1S2(=O)=O; 21.2 µM
COc1cc(-c2nn(-c3ccc(NC(=O)c4ccc(Cl)c(Cl)c4)cc3)cc2-c2ccncc2)ccc1Cl; > 100 µM
COc1cc(C2CC(c3ccc(C)cc3)=NN2C=O)ccc1Oc1ccnc2cc(Cl)ccc12 (stereo unspecified); 18.3 µM
COc1ccc(N=C2CSc3nnc(-c4cc(F)c(Cl)cc4Cl)n3N2)cc1; 13.4 µM
Cn1ccnc1Sc1ccc(/C=N/NC(=O)c2ccccc2O)cc1[N+](=O)[O-]; > 100 µM
O=c1[nH]nc(Cc2ccccc2)n1/N=C/c1c[nH]c2ccccc12; > 100 µM

# return TGI for each item in the list
1. CCCC/C=C1\CCC(CN2CCCCC2)C1=O (stereo unspecified)
2. COc1ccc(N2C=Nn3c(nc4sc(C)c(C)c4c3=O)C2)cc1
3. S=C1c2ccccc2NC(=NC2CCCC2)C2CSCN12 (stereo unspecified)
4. C=CCn1c2c(c3ccccc3c1=O)C(=O)c1ccccc1-2
5. O=C1C(Br)=CC2([N+](=O)[O-])CCNc3c(O)c4c5c(c3C2=C1Br)=NCCC=5C=N4 (stereo unspecified)
6. CC(=O)C1CC(C)=CCC12C(=O)Nc1ccccc12 (stereo unspecified)
7. COC(=O)C1CC2(CC3=C1CCCC3)OCCO2 (stereo unspecified)

> 54.4 µM
> 100 µM
> 100 µM
> 100 µM
3.15 µM
> 100 µM
> 100 µM

# return TGI for each item in the list
1. COc1cc([C@H]2c3cc4c(cc3O[C@@]3(O)COC(=O)[C@@H]23)OCO4)cc(OC)c1OC
2. COC(=O)/C=C\Sc1ccn(/C=C\C(=O)OC)c(=S)n1
3. O=c1c2ccccc2[nH]c(=S)n1-c1ccc(Br)cc1
4. CCOc1cc2ncc(C#N)c(Nc3ccc(OCc4cccc(F)c4)c(Cl)c3)c2cc1NC(=O)CC1CCSS1 (stereo unspecified)
5. c1ccc(CNc2c3c(nc4ccccc24)CCC3)cc1
6. Cc1ccc(-[n+]2c3cc(N)c(C)cc3nc3cc(C)c(Nc4ccccc4)cc32)cc1

["> 100 µM", "46.9 µM", "> 100 µM", "> 7.13 µM", "27.2 µM", "0.538 µM"]

----------
System: EKVX NSCLC
Test: NCI tumour cell line growth inhibition, 48 h; in the data active = GI50 below about 0.43 µM; inactive = the rest
Give your call using only these classes: YES for active, NO for inactive

O=C(Nc1ccc(N2CCNCC2)cc1)c1[nH]ncc1Nc1ncnc2sc3c(c12)CCC3; YES
CC(C)C[C@H](NC(=O)[C@H](Cc1cccc2ccccc12)NC(=O)N1CCOCC1)B(O)O; YES
CNC(P(=O)([O-])[O-])P(=O)([O-])[O-].N.N.[Pt+2]; NO

What did the test return for `O=C(Oc1ccc(Cl)cc1Cl)c1ccccc1Nc1ccnc(C(F)(F)F)c1` ? NO

What did the test return for `COc1ccc2cc(C(=O)/C=C/c3cc(OC)c(OC)c(OC)c3)ccc2c1` ? NO

What did the test return for `COc1ccc2c(c1)/C(=C\c1c(C)nc3sc(C)cn13)C(=O)N2C` ? NO

What did the test return for `Cc1c2c(nn1-c1ccc(S(=O)(=O)NC(=S)Nc3ccccc3)cc1)-c1ccccc1CC2` ? NO

What did the test return for `CC(=O)O[C@H]1CC[C@@]2(C)C(=CC[C@@H]3[C@@H]2CC[C@]2(C)C(c4cccnc4)=CC[C@@H]32)C1` ? NO

What did the test return for `COC(=O)N[C@H]1CCc2c(Br)c(OC)c(OC)c(OC)c2-c2ccc(SC)c(=O)cc21` ? YES

What did the test return for CN1CCN(CN2C(=O)C3C4C=CC(C3C2=O)C2C3C(=O)N(CN5CCN(C)CC5)C(=O)C3C42)CC1 (stereo not drawn) ? NO

What did the test return for `COc1cc2c3c(n(C)c(=O)c2cc1OC)-c1cc2c(cc1/C3=C\CCCCCN)OCO2` ? NO

What did the test return for `COc1cc(-c2nn(-c3ccc(NC(=O)c4ccc(Cl)c(Cl)c4)cc3)cc2-c2ccncc2)ccc1Cl` ? NO
